Data origin, for the record: patent US20240368120A1

Target: UniProt P43220
Sequence (P43220 24-463): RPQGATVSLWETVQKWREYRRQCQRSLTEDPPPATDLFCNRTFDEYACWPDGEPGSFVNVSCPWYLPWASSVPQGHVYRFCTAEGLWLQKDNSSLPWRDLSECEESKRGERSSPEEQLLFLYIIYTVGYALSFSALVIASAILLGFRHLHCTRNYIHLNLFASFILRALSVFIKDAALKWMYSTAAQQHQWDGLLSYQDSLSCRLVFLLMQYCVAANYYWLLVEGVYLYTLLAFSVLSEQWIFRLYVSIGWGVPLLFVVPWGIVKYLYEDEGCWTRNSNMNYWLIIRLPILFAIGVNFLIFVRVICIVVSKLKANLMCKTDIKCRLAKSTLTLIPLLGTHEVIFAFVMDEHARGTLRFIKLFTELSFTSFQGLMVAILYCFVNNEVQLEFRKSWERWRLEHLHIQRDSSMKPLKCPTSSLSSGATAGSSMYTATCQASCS
Test: GLP-1R low expression cell assay (cAMP TR-FRET, CHO-K1_hGLP-1Rlow_clone10 cells)
Conditions: cAMP TR-FRET, 30 min at 25° C.
measurement.kind: EC50

* Cn1c(CN2CC=C(c3ccc(F)c(OCc4ccc(Cl)cc4F)c3)CC2)nc2c(OC(F)F)cc(C(=O)O)cc21 | 0.01 to 0.1 µM
* N#Cc1ccc(COc2cccc(C3CCN(Cc4nc5cnc(C(=O)O)cc5n4C[C@@H]4CCO4)CC3)n2)c(F)c1 | 0.01 to 0.1 µM
* Cc1ccc(COc2cccc(C3CCN(Cc4nc5c(OC(F)F)cc(C(=O)O)cc5n4C)CC3)n2)c(F)c1 | 0.01 to 0.1 µM
* COc1cc(C(=O)O)cc2c1nc([C@H](C)N1CCC(c3cccc4c3O[C@@](C)(c3ccc(Cl)cn3)O4)CC1)n2C | 0.01 to 0.1 µM
* COc1cc(C#N)ccc1COc1cccc(C2CCN(Cc3nc4c(OC)cc(C(=O)O)cc4n3C)CC2)n1 | < 0.01 µM
* C[C@@H](F)Oc1cc(C(=O)O)cc2c1nc(CN1CCC(c3cccc(OCc4ccc(C#N)cc4F)n3)CC1)n2C | 0.01 to 0.1 µM
* Cn1c(CN2CCC(c3cccc(OCc4ccc(Cl)cc4F)n3)CC2)nc2c(OC(F)CF)cc(C(=O)O)cc21 (single isomer, unassigned) [Compound 329] | < 0.01 µM
* COCCOCCOCCOCCOCCOc1cc(C(=O)O)cc2c1nc(CN1CCC(c3cccc4c3O[C@](C)(c3ccc(Cl)cn3)O4)CC1)n2Cc1cncs1 | > 1 µM
* COc1c(F)c(C(=O)O)cc2c1nc(CN1CCC(c3cccc(OCc4ccc(C#N)cc4F)n3)CC1)n2C | 0.01 to 0.1 µM
* N#Cc1ccc(COc2cccc(C3CCN(Cc4nc5c6c(c(C(=O)O)cc5n4C[C@@H]4CCO4)OCCO6)CC3)n2)c(F)c1 | < 0.01 µM
* Cn1c(CN2CCC(c3cccc(OCc4ccccc4F)n3)CC2)nc2c(OC(F)F)cc(C(=O)O)cc21 | 0.1 to 1 µM
* CC(Oc1ccccc1C1CCN(Cc2nc3c(OC(F)F)cc(C(=O)O)cc3n2C)CC1)c1ccc(C#N)cc1F (single isomer, unassigned) | > 1 µM
* C[C@]1(c2ccc(Cl)cn2)Oc2cccc(C3CCN(Cc4nc5c(OCCF)cc(C(=O)O)cc5n4C[C@@H]4CCO4)CC3)c2O1 | < 0.01 µM
* CCOc1cc(C(=O)O)cc2c1nc(CN1CCC(c3cccc4c3OC[C@@H](c3ccc(C#N)cc3F)O4)CC1)n2C | 0.01 to 0.1 µM
* [2H]C([2H])([2H])Oc1cc(C(=O)O)cc2c1nc(CN1CCC(c3cccc4c3O[C@@](C)(c3ccc(Cl)cn3)O4)CC1)n2C[C@@H]1CCO1 | < 0.01 µM
* Cn1c(CN2CCC(Oc3cccc(COc4ccc(C#N)cc4F)n3)CC2)nc2c(OC(F)F)cc(C(=O)O)cc21 | 0.01 to 0.1 µM
* Cn1c(CN2CCC(c3cccc(OCc4ccc(C#N)cc4F)n3)CC2)nc2c(OC(C)(C)CF)cc(C(=O)O)cc21 | 0.1 to 1 µM
* Cn1c(CN2CCC(c3cccc(OCc4ccc(Cl)cc4F)c3)CC2)nc2c(OC(F)F)cc(NCC(=O)O)cc21 | > 1 µM
* COc1cc(C(=O)O)cc2c1nc(Cc1ccc(-c3cccc(OCc4ccc(Cl)cc4F)n3)cc1F)n2C | < 0.01 µM
* Cn1c(CN2CCC(c3nccc(OCc4ccc(Cl)cc4F)n3)CC2)nc2c(OC(F)F)cc(C(=O)O)cc21 | 0.01 to 0.1 µM
* Cn1c(CN2CCC(c3cccc(OCc4ccc(Cl)cc4F)n3)CC2)nc2c(OC(F)F)cc(-c3noc(=O)[nH]3)cc21 | 0.1 to 1 µM
